B1: LINE1-full (parent)
chain: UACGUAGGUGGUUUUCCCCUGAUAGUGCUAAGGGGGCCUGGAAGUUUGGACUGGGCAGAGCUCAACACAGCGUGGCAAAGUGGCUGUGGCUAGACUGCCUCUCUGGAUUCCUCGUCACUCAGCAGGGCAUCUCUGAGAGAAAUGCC

Variants of: B1
measurementDescription: self-cleavage, relative activity (ratio to wild type); higher = more cleavage; in vitro, sequencing; the parent is a self-cleaving ribozyme
measureName: self-cleavage
Numbers only.

> print(dat)
    mutantcode    measurename  reportedvalue
1    A42G U45C  self-cleavage            1.2
2   U96C U109A  self-cleavage           0.15
3    U9C A129C  self-cleavage           1.24
4   U81A U104C  self-cleavage           2.77
5  C133U A142G  self-cleavage           1.14

Consider the following items and state reported self-cleavage for each.
1. A67U C131U
2. A43G U45G
3. A50G A67G
4. U9C U15G

1. 0.08
2. 1.53
3. 0.37
4. 1.09

Consider the following items and state reported self-cleavage for each.
1. A69G C90U
2. U29C U91C
3. A59U U134C
4. U109C G135A
5. A31U U100G
6. A6G U26C
7. G21U C51A
8. G41A

1: 0.07; 2: 1.38; 3: 0.92; 4: 1.71; 5: 1.23; 6: 0.9; 7: 1.48; 8: 1.16

Consider the following items and state reported self-cleavage for each.
1. G80U A138G
2. C18U A78U
3. U26G U39C
4. U45A A117G
5. U15C U96C
6. A22G U102A

1. 1.45
2. 0.9
3. 1
4. 1.48
5. 0.23
6. 1.5

Consider the following items and state reported self-cleavage for each.
1. A30G U47A
2. A6G U14A
3. A107C U108A
4. U23C A64G
5. A94U A142G
6. C51U G127A
7. A42U A65G

1: 1.57; 2: 0.95; 3: 1.36; 4: 0.35; 5: 0.34; 6: 1.35; 7: 0.06

Consider the following items and state reported self-cleavage for each.
1. A6G C146U
2. G4U A78G
3. U85A U109C
4. G41U
5. G60A U81C
6. A92G U109C
7. C51A C111U
8. C18A U115C

1: 1.05; 2: 1.05; 3: 0.07; 4: 1.19; 5: 0.03; 6: 0.09; 7: 1.07; 8: 1.85

Consider the following items and state reported self-cleavage for each.
1. U91C U104C
2. U15C A42G
3. A31G G36A

[1.15, 1.43, 0.99]

Consider the following items and state reported self-cleavage for each.
1. A57G A65C
2. U20A A50U
3. U9C A92G
4. A43G A64C
5. U52G U119A

1: 0.05; 2: 1.06; 3: 0.1; 4: 0.2; 5: 0.93

Consider the following items and state reported self-cleavage for each.
1. G36C
2. G48A U85C
3. G72U A129G
4. A50C

1.07
0.1
1.08
1.34
